Provenance of the data: patent US6593335B1

Give measured Landrace Pig Bladder pD2 for each item. Keep answers brief.
Target: UniProt:F1SR11
Test: Functional potassium channel opening activity in isolated Landrace pig bladder strips (field-stimulated twitch)
Conditions: negative logarithm of ED50
Answers are plain numbers.

| molecule | target | assay metric | obs value |
| --- | --- | --- | --- |
| O=S1(=O)CCC2=C1C(c1ccc(F)c(Br)c1)C=C(C(F)(F)F)N2 (single isomer, unassigned) [Example 136] | UniProt:F1SR11 | Landrace Pig Bladder pD2 | 5.9 |

List the reported Landrace Pig Bladder pD2 of each molecule below.
1. O=C1CCCC2=C1C(c1ccc(Cl)c([N+](=O)[O-])c1)C1=C(CCS1(=O)=O)N2 (single isomer, unassigned; (+)) [Example 99]
2. O=C1CCCC2=C1C(c1ccc(Cl)c([N+](=O)[O-])c1)C1=C(CCS1(=O)=O)N2 (stereo not drawn) [Example 34]
3. O=C1CCC2=C1C(c1ccc(F)c(C(F)(F)F)c1)C1=C(CCS1(=O)=O)N2 (stereo not drawn)

result:
6.2
6.8
6.8

Hi, could you look up Landrace Pig Bladder pD2 for each item in my list?
1. O=C1CCC2=C1C(c1csc([N+](=O)[O-])c1)C1=C(CCS1(=O)=O)N2 (stereo not drawn)
2. O=C1CCCC2=C1C(c1cccc(Br)c1)C1=C(CCCS1(=O)=O)N2 (stereo not drawn)

result:
6.2
5.0

====

Molecular target: potassium channels (Sus scrofa, UniProt F1SR11)
Assay: Functional potassium channel opening activity in isolated Landrace pig bladder strips (field-stimulated twitch)
Conditions: maximal efficacy relative to P1075; field stimulation 0.05Hz, 0.5 milli-seconds at 20 volts
I'd be grateful if you could share measured Landrace Pig Bladder Efficacy (% P1075) for these entries.
# output: number + unit

Below, each entry is followed by its recorded Landrace Pig Bladder Efficacy (% P1075) result.
| compound | Landrace Pig Bladder Efficacy (% P1075) |
| --- | --- |
| O=C1CCCC2=C1C(c1ccc(Cl)c(Cl)c1)C1=C(CCS1(=O)=O)N2 (single isomer, unassigned; (-)) [Example 96] | 97 % P1075 |
| O=C1CCCC2=C1C(c1ccc3nonc3c1)C1=C(CCS1(=O)=O)N2 (single isomer, unassigned; (-)) [Example 98] | 100 % P1075 |
| O=C1CCCC2=C1C(c1cccc(Br)c1)C1=C(CCCS1(=O)=O)N2 (stereo not shown) [Example 8] | 95 % P1075 |
| O=C1CCCC2=C1C(c1ccc(Cl)c([N+](=O)[O-])c1)C1=C(CCS1(=O)=O)N2 (single isomer, unassigned; (-)) [Example 100] | 100 % P1075 |
| O=C1CCC2=C1C(c1ccc(F)c(Br)c1)C1=C(CCS1(=O)=O)N2 (single isomer, unassigned; (+)) [Example 87] | 100 % P1075 |

Provide the reported Landrace Pig Bladder Efficacy (% P1075) of each entry below, same order.
1. O=C1CCC2=C1C(c1ccc(F)c(Br)c1)C1=C(CCCS1(=O)=O)N2 (single isomer, unassigned; (-)) [Example 92]
2. O=S1(=O)CCCC2=C1C(c1ccc(F)c(Br)c1)C1=C(CCCS1(=O)=O)N2 [Example 54]

result:
["100 % P1075", "89 % P1075"]

====

Molecular target: potassium channels (Cavia porcellus)
Sequence (A0A286XYR9 1-1546): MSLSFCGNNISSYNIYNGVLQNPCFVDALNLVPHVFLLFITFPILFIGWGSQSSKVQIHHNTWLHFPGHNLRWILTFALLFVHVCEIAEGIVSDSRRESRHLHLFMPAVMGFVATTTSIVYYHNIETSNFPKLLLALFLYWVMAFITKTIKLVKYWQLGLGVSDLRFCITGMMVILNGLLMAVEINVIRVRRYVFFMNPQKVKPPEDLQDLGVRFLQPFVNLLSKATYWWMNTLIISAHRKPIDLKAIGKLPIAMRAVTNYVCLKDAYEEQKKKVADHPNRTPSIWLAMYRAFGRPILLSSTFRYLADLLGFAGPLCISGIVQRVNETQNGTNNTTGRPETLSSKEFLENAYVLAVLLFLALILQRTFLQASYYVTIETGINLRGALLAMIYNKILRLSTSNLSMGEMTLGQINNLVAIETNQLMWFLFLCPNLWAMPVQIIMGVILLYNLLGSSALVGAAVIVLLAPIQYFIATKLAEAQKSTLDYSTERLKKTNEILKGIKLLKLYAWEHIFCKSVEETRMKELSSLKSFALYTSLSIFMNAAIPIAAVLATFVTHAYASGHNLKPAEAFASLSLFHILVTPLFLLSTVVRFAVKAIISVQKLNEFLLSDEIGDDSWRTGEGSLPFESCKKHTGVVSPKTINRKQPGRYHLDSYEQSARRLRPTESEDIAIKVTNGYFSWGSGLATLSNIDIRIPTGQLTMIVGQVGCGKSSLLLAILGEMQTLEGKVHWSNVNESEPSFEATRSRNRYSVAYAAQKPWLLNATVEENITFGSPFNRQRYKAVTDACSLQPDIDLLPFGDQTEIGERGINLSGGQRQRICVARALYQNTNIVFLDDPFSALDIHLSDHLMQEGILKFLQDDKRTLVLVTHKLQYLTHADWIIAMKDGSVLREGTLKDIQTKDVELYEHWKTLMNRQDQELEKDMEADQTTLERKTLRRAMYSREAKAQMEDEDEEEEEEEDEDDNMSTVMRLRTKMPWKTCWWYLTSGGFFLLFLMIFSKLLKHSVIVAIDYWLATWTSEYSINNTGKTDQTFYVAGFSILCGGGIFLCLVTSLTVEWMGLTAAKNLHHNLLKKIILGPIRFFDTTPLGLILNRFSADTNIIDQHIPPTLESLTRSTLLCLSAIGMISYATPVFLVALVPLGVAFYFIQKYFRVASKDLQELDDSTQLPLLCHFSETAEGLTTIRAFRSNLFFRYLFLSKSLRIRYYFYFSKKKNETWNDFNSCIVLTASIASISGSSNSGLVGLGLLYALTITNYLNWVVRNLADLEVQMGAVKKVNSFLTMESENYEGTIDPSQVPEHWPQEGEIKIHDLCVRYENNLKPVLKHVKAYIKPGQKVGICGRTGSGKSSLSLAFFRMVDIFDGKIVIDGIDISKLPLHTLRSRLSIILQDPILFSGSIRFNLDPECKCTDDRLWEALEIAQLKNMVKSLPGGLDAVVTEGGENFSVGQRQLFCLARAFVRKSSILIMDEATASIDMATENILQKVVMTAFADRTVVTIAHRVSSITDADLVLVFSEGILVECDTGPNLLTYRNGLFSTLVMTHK
Sequence (Q9JHJ9 whole entry partner): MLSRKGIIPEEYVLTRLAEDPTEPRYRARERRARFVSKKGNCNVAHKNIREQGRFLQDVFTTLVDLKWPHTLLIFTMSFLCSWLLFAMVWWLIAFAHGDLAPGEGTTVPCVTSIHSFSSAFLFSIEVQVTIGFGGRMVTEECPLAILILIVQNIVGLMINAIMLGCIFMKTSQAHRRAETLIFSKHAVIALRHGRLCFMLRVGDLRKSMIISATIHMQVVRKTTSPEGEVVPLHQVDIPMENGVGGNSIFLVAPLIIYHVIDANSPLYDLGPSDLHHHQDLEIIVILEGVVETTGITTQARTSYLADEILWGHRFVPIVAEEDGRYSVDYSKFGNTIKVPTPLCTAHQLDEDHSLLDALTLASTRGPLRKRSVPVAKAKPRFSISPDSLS
Assay: Membrane hyperpolarization (MHP) assay in primary cultured guinea-pig urinary bladder (GPB) cells, DiBAC(4)3 FLIPR
Type: cell-based
Conditions: maximal steady-state hyperpolarization relative to reference P1075 (assigned as 100%)
Classification field: MET = MHP in GPB Cells Maximal Response (% P1075) at or over 90 % P1075; NOT MET = MHP in GPB Cells Maximal Response (% P1075) under 90 % P1075.

Below, 3 compounds whose answers are already recorded.
| compound | classification |
| --- | --- |
| CC1(C)CCC2=C(C1=O)C(c1cccc([N+](=O)[O-])c1)C1=C(CCS1(=O)=O)N2 (centres unmarked) | NOT MET |
| CC1(C)CCC2=C(C1=O)C(c1cc(Cl)cc(Br)c1O)C1=C(CCS1(=O)=O)N2 (centres unmarked) | NOT MET |
| O=C1CCCC2=C1C(c1cccc(Br)c1)C1=C(CCCS1(=O)=O)N2 (centres unmarked) | MET |

Please look at the following compound next.
query: // inclusive: MHP in GPB Cells Maximal Response (% P1075) at least 90 % P1075? input: O=C1CCCC2=C1C(c1cccc(F)c1)C1=C(CCCS1(=O)=O)N2 (centres unmarked)
result: NOT MET
